Catalogue of compounds with associated DC50
Biological target: KRAS (G12D) (Homo sapiens, UniProt P01116, G12D)
Construct: in-cell western with KRAS G12D antibody after 24 h
Sequence (P01116 1-188 isoform P01116-2 G12D): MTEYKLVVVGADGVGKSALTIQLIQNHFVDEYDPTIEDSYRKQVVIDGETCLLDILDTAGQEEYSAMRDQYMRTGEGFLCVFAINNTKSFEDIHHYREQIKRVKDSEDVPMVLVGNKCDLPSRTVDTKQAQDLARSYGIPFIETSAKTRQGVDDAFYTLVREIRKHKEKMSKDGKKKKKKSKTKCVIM
Test: KRAS (G12D) cellular degradation assay in AsPC-1 cells
Format: cell-based
Details: 24 hours, antibody fluorescence (Odyssey CLX), DC50 half-maximal degradation concentration
quantity_measured: DC50

>  <compound>
CCn1nccc1-c1ccc([C@@H](NC(=O)[C@@H]2C[C@@H](O)CN2C(=O)[C@H](C(C)C)n2cc(-c3ccc(COc4c(-c5c(C)c(F)cc6[nH]ncc56)c(C5CC5)cc5c(N6C[C@@H]7C[C@H]6CN7)nc(O[C@H]6C[C@H](OC)C6)nc45)cc3)nn2)[C@H](C)O)nc1

>  <result>
< 10 nM

$$$$
>  <compound>
CCn1nccc1-c1ccc([C@H](CO)NC(=O)[C@@H]2C[C@@H](O)CN2C(=O)[C@H](C(C)C)n2cc(-c3ccc(COc4c(-c5c(C)c(F)cc6[nH]ncc56)c(C5CC5)cc5c(N(C)C[C@@H]6CCNC6)nc(OC[C@H](C)OC)nc45)cc3)nn2)cc1

>  <result>
< 10 nM

$$$$
>  <compound>
CC[C@H](O)[C@H](NC(=O)[C@@H]1C[C@@H](O)CN1C(=O)[C@H](C(C)C)n1cc(-c2ccc(COc3c(-c4c(C)c(F)cc5[nH]ncc45)c(C4CC4)cc4c(N5C[C@@H]6C[C@H]5CN6)nc(OC5CCOCC5)nc34)cc2)nn1)c1ccc(-c2scnc2C)cc1

>  <result>
< 10 nM

$$$$
>  <compound>
CCn1nccc1-c1ccc([C@@H](NC(=O)[C@@H]2C[C@@H](O)CN2C(=O)[C@H](C(C)C)n2cc(-c3ccc(COc4c(-c5c(C)c(F)cc6[nH]ncc56)c(C5CC5)cc5c(N(C)[C@@H]6CCNC6)nc(OC[C@H](C)OC)nc45)cc3)nn2)[C@H](C)O)c2c1CC2

>  <result>
< 10 nM

$$$$
>  <compound>
Cc1ncsc1-c1ccc([C@H](CO)NC(=O)[C@@H]2C[C@@H](O)CN2C(=O)[C@H](C(C)C)n2cc(-c3ccc(COc4c(-c5c(C)c(F)cc6[nH]ncc56)c(C5CC5)cc5c(N6C[C@H]7C[C@@H]6CN7)nc(OC6CCOCC6)nc45)cc3)nn2)cc1 (single isomer, unassigned) [Example 5B]

>  <result>
> 1000 nM

$$$$
>  <compound>
CCn1nccc1-c1ccc([C@H](CO)NC(=O)[C@@H]2C[C@@H](O)CN2C(=O)[C@H](C(C)C)n2cc(-c3ccc(COc4c(-c5c(C)c(F)c(F)c6[nH]ncc56)c(C5CC5)cc5c(N6C[C@@H]7C[C@H]6CN7)nc(O[C@H]6CC[C@H](OC)CC6)nc45)cc3)nn2)cc1

>  <result>
< 10 nM

$$$$
>  <compound>
CCn1ncc2c(C#C[C@H](CO)NC(=O)[C@@H]3C[C@@H](O)CN3C(=O)[C@H](C(C)C)n3cc(-c4ccc(COc5c(-c6c(C)c(F)cc7[nH]ncc67)c(C6CC6)cc6c(N7C[C@@H]8C[C@H]7CN8)nc(O[C@H]7C[C@@H](OC)C7)nc56)cc4)nn3)cccc21

>  <result>
10 to 100 nM

$$$$
>  <compound>
CCn1nccc1-c1ccc([C@@H](NC(=O)[C@@H]2C[C@@H](O)CN2C(=O)[C@H](C(C)C)n2cc(-c3ccc(COc4c(-c5c(C)c(F)cc6[nH]ncc56)c(C5CC5)cc5c(N6C[C@@H]7C[C@H]6CN7)nc(OC6CC7COCC7C6)nc45)cc3)nn2)[C@H](C)O)cc1 (some centres unmarked)

>  <result>
< 10 nM

$$$$
>  <compound>
CO[C@@H](C)COc1nc(N2C[C@@H]3C[C@H]2CN3)c2cc(C3CC3)c(-c3c(C)c(F)cc4[nH]ncc34)c(OCc3ccc(-c4cn([C@H](C(=O)N5C[C@H](O)C[C@H]5C(=O)N[C@H](C#Cc5c(F)cccc5F)CO)C(C)C)nn4)cc3)c2n1

>  <result>
10 to 100 nM

$$$$
>  <compound>
CCn1nccc1-c1ccc([C@H](CO)NC(=O)[C@@H]2C[C@@H](O)CN2C(=O)[C@H](C(C)C)n2cc(-c3ccc(COc4c(-c5c(C)c(F)cc6[nH]ncc56)c(C5CC5)cc5c(N6C[C@H]7C[C@@H]6CN7)nc(OC[C@H](C)OC)nc45)cc3)nn2)cc1 (single isomer, unassigned) [Example 1B]

>  <result>
> 1000 nM

$$$$
>  <compound>
CO[C@@H](C)COc1nc(N2C[C@@H]3CN[C@@H](C3)C2)c2cc(C3CC3)c(-c3c(C)c(F)cc4[nH]ncc34)c(OCc3ccc(-c4cn([C@H](C(=O)N5C[C@H](O)C[C@H]5C(=O)N[C@@H](CO)c5ccc(-c6scnc6C)cc5)C(C)C)nn4)cc3)c2n1

>  <result>
10 to 100 nM

$$$$
>  <compound>
CCn1nccc1-c1ccc([C@H](CO)NC(=O)[C@@H]2C[C@@H](O)CN2C(=O)[C@H](C(C)C)n2cc(-c3ccc(COc4c(-c5c(C)c(F)cc6[nH]ncc56)c(C5CC5)cc5c(N6C[C@@H]7C[C@H]6CN7)nc(OC6CC7COCC7C6)nc45)cc3)nn2)cc1 (some centres unmarked)

>  <result>
< 10 nM

$$$$
>  <compound>
CCn1nccc1-c1ccc([C@H](CC(=O)NC)NC(=O)[C@@H]2C[C@@H](O)CN2C(=O)[C@H](C(C)C)n2cc(-c3ccc(COc4c(-c5c(C)c(F)cc6[nH]ncc56)c(C5CC5)cc5c(N6C[C@@H]7C[C@H]6CN7)nc(OC[C@H](C)OC)nc45)cc3)nn2)cc1

>  <result>
< 10 nM

$$$$
>  <compound>
CCn1nccc1-c1cc(F)c([C@@H](NC(=O)[C@@H]2C[C@@H](O)CN2C(=O)[C@H](C(C)C)n2cc(-c3ccc(COc4c(-c5c(C)c(F)cc6[nH]ncc56)c(C5CC5)cc5c(N6C[C@@H]7C[C@H]6CN7)nc(O[C@H]6C[C@H](OC)C6)nc45)cc3)nn2)[C@H](C)O)c(F)c1

>  <result>
10 to 100 nM

$$$$

====

Catalogue of compounds with associated DC50
Biological target: KRAS (G12D) (Homo sapiens, UniProt P01116, G12D)
Construct: in-cell western with KRAS G12D antibody after 24 h
Test: KRAS (G12D) cellular degradation assay in AsPC-1 cells
Type: cell-based
Conditions: 24 hours, antibody fluorescence (Odyssey CLX), DC50 half-maximal degradation concentration
quantity_measured: DC50

>  <compound>
CCn1nccc1-c1ccc([C@H](CO)NC(=O)[C@@H]2C[C@@H](O)CN2C(=O)[C@H](C(C)C)n2cc(-c3ccc(COc4c(-c5c(C)c(F)cc6[nH]ncc56)c(C5CC5)cc5c(N6C[C@@H]7C[C@H]6CN7)nc(OC[C@H](C)OC)nc45)cc3)nn2)c2c1CC2

>  <quantity_measured>
DC50

>  <result>
< 10 nM

$$$$
>  <compound>
CCn1nccc1-c1ccc([C@H](CO)NC(=O)[C@@H]2C[C@@H](O)CN2C(=O)[C@H](C(C)C)n2cc(-c3ccc(COc4c(-c5c(C)c(F)cc6[nH]ncc56)c(C5CC5)cc5c(N6C[C@@H]7C[C@H]6CN7)nc(OC(COC)C(F)F)nc45)cc3)nn2)cc1 (some centres unmarked)

>  <quantity_measured>
DC50

>  <result>
< 10 nM

$$$$

====

Catalogue of compounds with associated DC50
Target: KRAS (G12D) (Homo sapiens, UniProt P01116, G12D)
Construct: in-cell western with KRAS G12D antibody after 24 h
Assay: KRAS (G12D) cellular degradation assay in AsPC-1 cells
Format: cell-based
Settings: 24 hours, antibody fluorescence (Odyssey CLX), DC50 half-maximal degradation concentration

>  <compound>
CO[C@@H](C)COc1nc(N2C[C@H]3C[C@@H]2CN3)c2cc(C3CC3)c(-c3c(C)c(F)cc4[nH]ncc34)c(OCc3ccc(-c4cn([C@H](C(=O)N5C[C@H](O)C[C@H]5C(=O)N[C@@H](C)c5ccc(-c6scnc6C)cc5)C(C)C)nn4)cc3)c2n1 (single isomer, unassigned) [Example 3B]

>  <DC50>
> 1000 nM

$$$$
>  <compound>
CCn1nccc1-c1ccc([C@H](C)NC(=O)[C@@H]2C[C@@H](O)CN2C(=O)[C@H](C(C)C)n2cc(-c3ccc(COc4c(-c5c(C)c(F)cc6[nH]ncc56)c(C5CC5)cc5c(N6C[C@H]7C[C@@H]6CN7)nc(OC[C@H](C)OC)nc45)cc3)nn2)cc1 (single isomer, unassigned) [Example 4B]

>  <DC50>
> 1000 nM

$$$$
>  <compound>
Cc1ncsc1-c1ccc([C@H](CO)NC(=O)[C@@H]2C[C@@H](O)CN2C(=O)[C@H](C(C)C)n2cc(-c3ccc(COc4c(-c5c(C)c(F)cc6[nH]ncc56)c(C5CCC5)cc5c(N6C[C@@H]7C[C@H]6CN7)nc(OC6CCOCC6)nc45)cc3)nn2)cc1

>  <DC50>
< 10 nM

$$$$
>  <compound>
CCn1nccc1-c1ccc([C@@H](NC(=O)[C@@H]2C[C@@H](O)CN2C(=O)[C@H](C(C)C)n2cc(-c3ccc(COc4c(-c5c(C)c(F)cc6[nH]ncc56)c(C5CC5)cc5c(N(C)[C@H]6CCNC6)nc(OC[C@H](C)OC)nc45)cc3)nn2)[C@H](C)O)c2c1CC2 [Example 164]

>  <DC50>
< 10 nM

$$$$

meta.source: patent US20260295053A1
